# SUBJECT OF TEST: T1, CD27 expressed on the cell surface (HT1080_CD27 cells) (human, UniProt P26842 20-260)
# T1 sequence (looked up): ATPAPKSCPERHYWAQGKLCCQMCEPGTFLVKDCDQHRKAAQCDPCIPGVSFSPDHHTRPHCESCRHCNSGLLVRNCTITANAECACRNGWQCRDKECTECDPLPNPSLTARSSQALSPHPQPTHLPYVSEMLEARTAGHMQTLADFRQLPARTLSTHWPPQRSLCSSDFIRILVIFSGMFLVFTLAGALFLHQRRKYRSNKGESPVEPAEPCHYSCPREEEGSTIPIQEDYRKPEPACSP
# ASSAY PROTOCOL: cell-based or functional assay; further: test concentration or dose not given here
Recorded IL-8 [abs. corr.] for the following binders
Write the number in abs. corr. without appending the unit.

Consider the reported IL-8 [abs. corr.] for these binders:
binder="P018.S.09.A.H03 (antibody, V domains shown, V regions on human Ig constant parts; also called AB27_160) VH: QSLEESGGRLVTPDESLTLTCTVSGFSLSSNAMIWVRQAPGKGLEWIGIIDTGGSAYYASWAKGRFTISKTSTTVDLKITSPTTEDTATYFCARDRYTDSSGYNLWGQGTLVTVSS VL: DIVMTQTPASVEAAVGGTVTIKCQASQSIGASLAWYKQKPGQPPKLLIYSASWLASGVPSRFKGSGSGTEFTLTISDLASADAATYYCQSYYYRSSSGYGYAFGGGTEVVVK" observation_type="IL-8 [abs. corr.]" unit_text="abs. corr." assay_result=0.578
binder="P018.S.05.A.C06 (antibody, V domains shown, V regions on human Ig constant parts; also called AB27_85) VH: QSLEESGGRLVTPGTPLTLTCTASGFSLSNYYITWVRQAPGEGLEWIGTISTAGNTYFASWAKGRFTISRTSTTVDLKMTSPTTEDTATYFCARDGAGDSNYYRNLWGQGTLVTVSS VL: DIVLTQTPASVEAAVGGTVTIKCQASQSIDRFLAWYQQKPGQPPKLLIVDASTLESGVPSRFSGSGSGTEFTLTISDLESDNAATYYCQQGYSISDIDNVFGGGTEVVVK" observation_type="IL-8 [abs. corr.]" unit_text="abs. corr." assay_result=0.539

**Q:** What value of IL-8 [abs. corr.] has been recorded for this entry: P018.S.10.A.C05 (antibody, V domains shown, V regions on human Ig constant parts; also called AB27_173) VH: QSVEETGGRLVTPGTPLTLTCAASGVSLSGYYAMSWVRQAPGKGLEWIGYLDATGSTYYASWVKGRFIISRPSTTVDLQITSPTIEDTATYFCARGSYDGVGYNWGLWGQGTLVTVSS VL: DIVMTQTPASVSEPVGGTVTIKCQASESIYNGLAWYQQKPGQPPKRLIYGASTLTSGVPSRFKGSGSGTEFTLTISDLESDDAATYYCQSNYGSGSRSNYIFGGGTEVVVK
**A:** 0.206
